Target: Macrophage migration inhibitory factor (Homo sapiens, UniProt P14174)
Sequence (P14174 whole entry): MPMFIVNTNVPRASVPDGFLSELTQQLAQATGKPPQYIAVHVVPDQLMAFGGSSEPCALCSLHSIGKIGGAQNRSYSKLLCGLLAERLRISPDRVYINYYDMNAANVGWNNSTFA
Test: Inhibition of C-terminal His-tagged recombinant human MIF expressed in Escherichia coli BL21 (DE3) using 4-HPP as substrate preincubated for 10 mins followed by substrate addition by UV absorption spectrum analysis
quantityMeasured: pIC50
Give bare numbers, as −log10 of the molar value.

The value of pIC50 recorded for O=C(O)c1ccc(-c2ccc(-c3cc4ccc(O)cc4oc3=O)cc2)cc1 when tested on Macrophage migration inhibitory factor (Homo sapiens, UniProt P14174) reads 7.15

Provenance of the data: BindingDB's records for doi:10.1021/acs.jmedchem.0c01160
